B1: library; a variant is named by its letters at N, in order (parent)
chain: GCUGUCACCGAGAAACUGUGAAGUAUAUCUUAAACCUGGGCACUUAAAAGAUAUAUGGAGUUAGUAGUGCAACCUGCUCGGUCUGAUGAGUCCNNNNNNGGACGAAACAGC

- Variants of: B1
- protocol notes: FACS-Seq fitted mean relative fluorescence mCherry/BFP with ligand (log10 relative fluorescence); HEK293T; ligand: cyclic di-GMP (c-di-GMP-II aptamer); ligand concentration (+) FACS-Seq: 1 mM; higher = higher reporter protein expression
- cond: ligand present: yes
I'd appreciate it if you could supply FACS-Seq fitted mean (log10) values for the items below.
Give your answer as a number; write no unit.

GET /values?readout=FACS-Seq fitted mean (log10)&item= AAAUGC 0.294

GET /values?readout=FACS-Seq fitted mean (log10)&item= CCAUUG -0.134

GET /values?readout=FACS-Seq fitted mean (log10)&item= CAUAAU -0.0129

GET /values?readout=FACS-Seq fitted mean (log10)&item= GUAAGA -0.308

GET /values?readout=FACS-Seq fitted mean (log10)&item= AACUCC 0.225

GET /values?readout=FACS-Seq fitted mean (log10)&item= UAAAUU 0.394

GET /values?readout=FACS-Seq fitted mean (log10)&item= UCGAGC 0.204

GET /values?readout=FACS-Seq fitted mean (log10)&item= ACGCGG -0.107

GET /values?readout=FACS-Seq fitted mean (log10)&item= AUGAAC 0.334

GET /values?readout=FACS-Seq fitted mean (log10)&item= UUUGUU 0.125

GET /values?readout=FACS-Seq fitted mean (log10)&item= UGUAGU 0.343

GET /values?readout=FACS-Seq fitted mean (log10)&item= CGCAAA -0.262

GET /values?readout=FACS-Seq fitted mean (log10)&item= AACUGA 0.0803

GET /values?readout=FACS-Seq fitted mean (log10)&item= UAGUCC 0.203

GET /values?readout=FACS-Seq fitted mean (log10)&item= CGCUGU 0.433

GET /values?readout=FACS-Seq fitted mean (log10)&item= CAACAU -0.0626

GET /values?readout=FACS-Seq fitted mean (log10)&item= AUGGGU -0.395

GET /values?readout=FACS-Seq fitted mean (log10)&item= GUGCCG -0.15

GET /values?readout=FACS-Seq fitted mean (log10)&item= GCGAUA -0.154

GET /values?readout=FACS-Seq fitted mean (log10)&item= UCUGAU -0.0535

GET /values?readout=FACS-Seq fitted mean (log10)&item= CCAAAC -0.0651

GET /values?readout=FACS-Seq fitted mean (log10)&item= GCGAUC -0.206

GET /values?readout=FACS-Seq fitted mean (log10)&item= AUGCGA -0.0888

GET /values?readout=FACS-Seq fitted mean (log10)&item= GCUAUG -0.505

GET /values?readout=FACS-Seq fitted mean (log10)&item= AAGCAC -0.0705

GET /values?readout=FACS-Seq fitted mean (log10)&item= GCAAUA -0.0479

GET /values?readout=FACS-Seq fitted mean (log10)&item= CGUUUA -0.288

GET /values?readout=FACS-Seq fitted mean (log10)&item= UCGCGA 0.0917

GET /values?readout=FACS-Seq fitted mean (log10)&item= AACAGA -0.683

GET /values?readout=FACS-Seq fitted mean (log10)&item= UAGAAU -0.193

GET /values?readout=FACS-Seq fitted mean (log10)&item= CCGAAG -0.24

GET /values?readout=FACS-Seq fitted mean (log10)&item= AAGCAA -0.454

GET /values?readout=FACS-Seq fitted mean (log10)&item= CUAAUA -0.316

GET /values?readout=FACS-Seq fitted mean (log10)&item= ACGAGU -0.229

GET /values?readout=FACS-Seq fitted mean (log10)&item= CAAAAU 0.0784

GET /values?readout=FACS-Seq fitted mean (log10)&item= GUAGAU -0.145

GET /values?readout=FACS-Seq fitted mean (log10)&item= UUAAUG 0.183

GET /values?readout=FACS-Seq fitted mean (log10)&item= CCGGGG -0.295

GET /values?readout=FACS-Seq fitted mean (log10)&item= AGGAAG -0.659

GET /values?readout=FACS-Seq fitted mean (log10)&item= ACGUGA -0.0284

GET /values?readout=FACS-Seq fitted mean (log10)&item= ACGAAG 0.0516

GET /values?readout=FACS-Seq fitted mean (log10)&item= CGGUCA -0.182

GET /values?readout=FACS-Seq fitted mean (log10)&item= AUAUCC -0.565

GET /values?readout=FACS-Seq fitted mean (log10)&item= GUAACG 0.124

GET /values?readout=FACS-Seq fitted mean (log10)&item= GUAUGA -0.189

GET /values?readout=FACS-Seq fitted mean (log10)&item= GUGGAC -0.171
